Would you kindly list PD50 for each of these compounds?
system: Mus musculus; experiment: Acute toxicity in po dosed mouse assessed as concentration required to produce 50% loss of righting reflex administered as qd for 4 days measured for 1 min post last dose; assay type: organism-based; conditions: in vivo
Just the number please, in mg/kg, no unit attached.

Can you share its PD50? I mean this compound: Cc1cccc(NC(=O)/N=C2\CCCN2C)c1
825

Please give the measured PD50 for this compound: CN1CCC/C1=N\C(=O)Nc1cccc(Cl)c1
950

Using the record for COc1ccccc1OCC(O)COC(N)=O (configuration not stated) , report its PD50.
1050

What measured PD50 goes with COc1cccc(NC(=O)/N=C2\CCC(C)N2C)c1 (configuration not stated) ?
680

Bench note: what PD50 did COc1cccc(OC)c1NC(=O)/N=C1\CCCN1C show?
460

What value of PD50 has been recorded for this entry: CN1CCC/C1=N\C(=O)Nc1ccccc1
220

Using the record for CCc1cccc(CC)c1NC(=O)/N=C1\CCCN1C , report its PD50.
161

* * *

test system: Mus musculus; assay: Anticonvulsant activity in po dosed mouse assessed as blockade of supramaximal electroshock-induced […] seizure; format: functional
Calls of active or inactive are those of the source. The rule behind the calls is not given here.
Response enum: active, inactive

Just curious, what result did CN1CC(C)(C)C/C1=N\C(=O)Nc1cccc(Cl)c1 get here?
inactive

Please state the recorded outcome for this molecule: CN1CCC/C1=N\C(=O)Nc1ccc(Br)cc1
inactive

Lab log entry: CN1CCC/C1=N\C(=O)Nc1ccc(N(C)C)cc1 — outcome as called in the assay?
inactive

Any idea what this test logged for CC(C)c1ccccc1NC(=O)/N=C1\CCCN1C ?
active

Tell me the recorded outcome of this test for Cc1cccc(C)c1NC(=O)/N=C1\CC(c2ccccc2)CN1C (configuration not stated) .
inactive

Given CCOc1ccc(NC(=O)/N=C2\CCCN2C)cc1 , state the outcome it received in this test.
inactive

Tell me the recorded outcome of this test for O=C(/N=C1\CCCCCN1)Nc1ccccc1 .
inactive

Could you kindly confirm the outcome this assay logged for COc1ccc(NC(=O)/N=C2\CCCN2C)cc1 ?
inactive

Test call for this molecule, please: O=C(/N=C1\CCCCCN1)Nc1c(Cl)cccc1Cl
inactive

Test call for this molecule, please: CC1/C(=N\C(=O)Nc2cccc(Cl)c2)N(C)CC1c1ccccc1 (configuration not stated)
inactive

Field: outcome | Entry: CC1/C(=N\C(=O)Nc2ccccc2)N(C)CC1c1ccccc1 (configuration not stated)
inactive

Outcome? CCOC(=O)c1ccc(NC(=O)/N=C2\CCCN2C)cc1
inactive

* * *

assay: Acute toxicity in po dosed mouse assessed as mortality administered as qd for 6 days measured on day 7 post last dose; format: organism-based; details: in vivo
# true (1) = LD50 at 144 h below 600 mg/kg (exclusive); false (0) = LD50 at 144 h at/above 600 mg/kg

Please determine if CN1CCC/C1=N\C(=O)Nc1cccc(C(F)(F)F)c1 is below 600 mg/kg in terms of LD50 at 144 h.
false (0)

Decide: LD50 at 144 h of CC(C)c1cccc(C(C)C)c1NC(=O)/N=C1\CCCN1C strictly below 600 mg/kg?
true (1)

Here's an entry: CNC1=Nc2ccc(Cl)cc2C(c2ccccc2)=[N+]([O-])C1 [CHLORDIAZEPOXIDE] . Is its LD50 at 144 h below 600 mg/kg?
false (0)

Please state whether LD50 at 144 h is below 600 mg/kg for Cc1cccc(Cl)c1NC(=O)/N=C1\CCCN1C
true (1)

Dear reviewer, please state whether CN1CCC/C1=N\C(=O)Nc1c(Br)cccc1Br has LD50 at 144 h strictly beneath 600 mg/kg.
true (1)

Decide: LD50 at 144 h of COc1ccccc1OCC(O)COC(N)=O (centres undefined) strictly below 600 mg/kg?
false (0)

# TODO verify LD50 at 144 h < 600 mg/kg strictly for this compound: CN1CCC/C1=N\C(=O)Nc1ccc([N+](=O)[O-])cc1
false (0)

Bench note: check whether CN1CCC/C1=N\C(=O)Nc1c(Cl)cccc1Cl shows LD50 at 144 h below 600 mg/kg
true (1)

Take the compound CCN1CCC/C1=N\C(=O)Nc1cccc(Cl)c1 and say whether its LD50 at 144 h is less than 600 mg/kg.
false (0)

Determine if CN1CCC/C1=N\C(=O)Nc1cccc(Cl)c1 shows LD50 at 144 h strictly lower than 600 mg/kg.
false (0)

I wonder whether COc1cccc(OC)c1NC(=O)/N=C1\CCCN1C has LD50 at 144 h below 600 mg/kg. Can you tell?
false (0)

Regarding CN1CCC/C1=N\C(=O)Nc1cccc(I)c1 , kindly confirm whether its LD50 at 144 h is beneath 600 mg/kg.
false (0)

Report whether reported LD50 at 144 h is lower than 600 mg/kg (strictly) for CN1CCC/C1=N\C(=O)Nc1ccccc1
true (1)

Does the reported LD50 at 144 h of CCc1cccc(CC)c1NC(=O)/N=C1\CCCN1C stay below 600 mg/kg?
true (1)
